- Test system: SK-MEL-5
- experiment: NCI tumour cell line growth inhibition, 48 h
The source made the active and inactive calls. Rule as the data show it: active = GI50 up to about 1.1 µM and inactive = higher.
readout type: GI50

- COC(=O)n1c(CBr)c(Br)c2ccccc21: 51.5 µM (inactive)
- C=CCn1c(-c2ccc(Cl)cc2Cl)cs/c1=N\c1c(C)n(C)n(-c2ccccc2)c1=O: 3.04 µM (inactive)
- N/N=C(\C(=O)Nc1c(Cl)cc([N+](=O)[O-])cc1Cl)C(c1cnc2ccc([N+](=O)[O-])cc2n1)[N+](=O)[O-] (stereo unspecified): > 100 µM (inactive)
- CN(C)CCOc1cc2c(c3ccccc13)-c1ccccc1C2=O: 1.58 µM (inactive)
- CC1O[C@@H]2CCCCC(=O)[C@]2(C)[C@H]1C (stereo partly specified): > 100 µM (inactive)
- O=C1c2ccccc2N2Oc3ccccc3C12c1ccccc1 (stereo unspecified): > 100 µM (inactive)
- C/C=C(/COC(C)=O)C(=O)OC1C=C(C=O)C(C)(C)C=C1C (stereo unspecified): > 100 µM (inactive)
- CC1NC(/C(=C/c2ccccc2O)NC(=O)c2ccccc2)OC1=O (stereo unspecified): 39.7 µM (inactive)
- COc1cc(C2c3cc4c(cc3OC(NNC(N)=S)C2C)OCO4)cc(OC)c1OC (stereo unspecified): 0.269 µM (active)
- CCOC1OC(CO)C(O)CC1n1ccc(=O)[nH]c1=O (stereo unspecified): > 100 µM (inactive)
- O=C(CC(=O)n1nc(-c2ccccc2)c(/N=N/c2ccc(Cl)cc2)c1-c1ccccc1)Nc1cccc(Cl)c1: > 100 µM (inactive)
- O=C1c2ccccc2-c2ccc(/N=N/c3c(O)ccc4ccccc34)cc21: > 100 µM (inactive)
- C[Si](C)(C)/C(I)=C/CO: 19 µM (inactive)
- COC12OCCN(CCO)C1=CC(=O)C1(C)N=NC(C)C12 (stereo unspecified): > 100 µM (inactive)
- CC(C)C(C=O)C(O)(C(F)(F)F)C(F)(F)F (stereo unspecified): > 100 µM (inactive)
- CC(C)=CC(=O)C1c2cccc(O)c2C(=O)c2c(O)cc(C)cc21 (stereo unspecified): 2.05 µM (inactive)
- O=C(O)CNC(=O)c1ccc([As](=O)(O)O)cc1: > 100 µM (inactive)
- O=C(c1ccc2ccccc2c1)N(Cc1cccnc1)C(=S)N(Cc1cccnc1)C(=O)c1ccc2ccccc2c1: 20.6 µM (inactive)
- C=C(CS(=O)(=O)c1ccccc1)[P+](c1ccccc1)(c1ccccc1)c1ccccc1: 13.6 µM (inactive)
- CCN(CC)CCCNc1nc(=O)[nH]c(C)c1C(=O)Nc1ccc2c(c1)c1ccccc1n2CC: > 100 µM (inactive)
- CCCCCCCCCCCCCC(=O)OCC(CCS(=O)(=O)O[C@H]1CC[C@@]2(C)C(=CC[C@@H]3C2CC[C@]2(C)C(=O)CCC32)C1)OC(=O)CCCCCCCCCCCCC (stereo partly specified): > 100 µM (inactive)

* * *

- Test system: TK-10
- experiment: NCI tumour cell line growth inhibition, 48 h
The source made the active and inactive calls. Rule as the data show it: active = GI50 up to about 1.1 µM and inactive = higher.
readout type: GI50

• Cc1ccc(S(=O)(=O)N(CCN2C(=O)c3ccccc3C2=O)c2cc3c4c(c2)Oc2cc(N(CCN5C(=O)c6ccccc6C5=O)S(=O)(=O)c5ccc(C)cc5)cc5c2C4(C)c2c(cc(N(CCN4C(=O)c6ccccc6C4=O)S(=O)(=O)c4ccc(C)cc4)cc2O5)O3)cc1 = > 100 µM (inactive)
• COC(=O)/C=C1\C(=O)N(C(C)=O)c2ccccc21 = 7.14 µM (inactive)
• CC(NNC(=O)c1ccncc1)c1ccc(Cl)cc1Cl (stereo not drawn) = > 100 µM (inactive)
• C=CCN(c1cc(OC)c2[nH]cc(C)c2c1[N+](=O)[O-])S(C)(=O)=O = > 100 µM (inactive)
• O=C(NC(=O)c1ccccc1[N+](=O)[O-])Nc1ccc(Oc2ncc(Cl)cn2)c(C(F)(F)F)c1 = 20.1 µM (inactive)
• N#Cc1ccc(Oc2ccccc2)cc1C#N = > 100 µM (inactive)
• O=C(CC(=O)n1nc(-c2ccccc2)c(/N=N/c2ccc(Cl)cc2)c1-c1ccccc1)Nc1cccc(Cl)c1 = > 100 µM (inactive)
• Brc1ccc(C2CC3(c4ccccc4)ON=C(c4ccccc4)N3c3ccccc3S2)cc1 (stereo not drawn) = > 100 µM (inactive)

Measured values drawn from ChEMBL document CHEMBL1201862 for this set.
